Reference source: paper PMC12037410

Parameter: Bmal1(PASB) dTmB. Scope: all listed entries.
# measuredOn: UniProt:O00327
# Design: PASB domain (residues 338–449); Protein thermal shift (PTS) fragment screen on recombinant human BMAL1(PASB), shift of melting temperature
# conditionNotes: dTmB; binder
Field format: number, assumed °C, no unit text.

Example entries and their recorded answers appear below.
{"columns": ["compound", "Bmal1(PASB) dTmB, °C"],
 "data": [
  ["CN1CCN(c2nccc(N)n2)CC1", -0.40],
  ["Clc1ccc(C(c2ccccc2)N2CCNCC2)cc1 (stereo not drawn)", -4.68],
  ["CCN(CC)CCNC(=O)c1ccc(N)c(Cl)c1", -0.15]
]}

Asked: Which Bmal1(PASB) dTmB value is on record for O=C(O)c1cc(-c2ccc(F)cc2)ccc1O ?
Given back: -1.13

###

# measuredOn: UniProt:O00327
# Parameters: PASB domain (residues 338–449); Protein thermal shift (PTS) fragment screen on recombinant human BMAL1(PASB), shift of melting temperature
# conditionNotes: dTmB; binder
readoutKind: Bmal1(PASB) dTmB

Example entries and their recorded answers appear below.
{"columns": ["compound", "Bmal1(PASB) dTmB"],
 "data": [
  ["c1cnc2[nH]ncc2c1", "-0.31 °C"],
  ["O=C(OC1CCCCC1)c1ccccc1O", "0.09 °C"],
  ["Cc1nc(-c2ccccc2F)cs1", "-0.20 °C"]
]}

Asked: Query Bmal1(PASB) dTmB on UniProt:O00327 for COc1ccc(C(=O)O)cc1N1CCCC1
Given back: -0.37 °C

Asked: Also check OCc1ccc2c(c1)OCO2
Given back: -0.20 °C

Asked: Also check O=C(COc1ccc(Cl)cc1)N1CCNCC1
Given back: -1.08 °C

Asked: Also check O=C(O)c1cnccn1
Given back: 0.04 °C

Asked: Also check COc1ccc(Cc2ccc(OC)cc2)cc1
Given back: -0.11 °C

Asked: Also check c1ccc2c(c1)CNc1ccccc1C2
Given back: -1.75 °C

Asked: Also check O=C(O)c1cccc(-c2ccc(F)cc2F)c1
Given back: -0.92 °C

Asked: Also check CN(C)CCNC(=O)c1ccc(N)cc1
Given back: -0.84 °C

Asked: Also check NC(=O)N1CCNCC1
Given back: 0.03 °C

Asked: Also check O=C1CN(Cc2ccccc2)CCN1
Given back: -0.65 °C

Asked: Also check OCC(O)COc1ccc(Cl)cc1 (centres unmarked)
Given back: 0.07 °C

Asked: Also check O=C(O)CC(c1ccccc1)c1ccccc1
Given back: -0.49 °C

Asked: Also check NC(=O)Cc1ccccn1
Given back: -0.17 °C

Asked: Also check NS(=O)(=O)c1ccccc1
Given back: -0.29 °C

Asked: Also check O=C1c2ccccc2CN1c1ccccc1
Given back: -0.56 °C

Asked: Also check Cc1cc(C(C)(C)C)cc(C)c1CC1=NCCN1
Given back: -1.26 °C

Asked: Also check CCN(CC)C(=O)/C=C/c1ccccc1
Given back: -1.63 °C

Asked: Also check COc1ccc(CCN2CCC(N)CC2)cc1
Given back: -0.58 °C

Asked: Also check NC(N)=NC(N)=Nc1ccc(Cl)cc1
Given back: -0.89 °C

Asked: Also check ClC1(Cl)CC1c1ccccc1 (centres unmarked)
Given back: 0.06 °C

Asked: Also check Oc1ccc(Cc2ccccc2)cc1
Given back: -2.61 °C

###

# measuredOn: BMAL1 (Homo sapiens, UniProt O00327)
# Sequence (O00327 338-449): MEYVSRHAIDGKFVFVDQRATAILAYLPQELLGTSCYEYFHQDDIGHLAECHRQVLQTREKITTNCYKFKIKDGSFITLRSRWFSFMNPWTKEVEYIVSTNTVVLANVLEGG
# Set-up: PASB domain (residues 338–449); Protein thermal shift (PTS) fragment screen on recombinant human BMAL1(PASB), shift of melting temperature
# conditionNotes: dTmB; binder
Parameter: Bmal1(PASB) dTmB. Scope: all listed entries.

Example entries and their recorded answers appear below.
{"columns": ["compound", "Bmal1(PASB) dTmB"],
 "data": [
  ["Oc1ccccc1N1CCNCC1 [Prestw-Frag-3738, Compound 34]", "0.10 °C"],
  ["O=c1cc(O)c2ccccc2o1 [Prestw-Frag-1131, Compound 301]", "0.28 °C"],
  ["Cc1ccc(S(N)(=O)=O)cc1 [Prestw-Frag-1894, Compound 198]", "-0.38 °C"],
  ["NCc1c(N)ccc(Cl)c1Cl [Prestw-Frag-1039, Compound 337]", "0.01 °C"],
  ["c1ccc(C2COCCN2)cc1 (stereo not shown) [Prestw-Frag-3705, Compound 182]", "-0.30 °C"],
  ["COc1cc2c(cc1OC)C(C)N(C)CC2 (stereo not shown) [Prestw-Frag-1273, Compound 218]", "-0.29 °C"]
]}

Okay, next one:
Asked: Which Bmal1(PASB) dTmB value is on record for O=C(Cc1ccccc1)c1ccccc1 [Prestw-Frag-2219, Compound 440] ?
Given back: -0.71 °C

###

# measuredOn: BMAL1 (Homo sapiens, UniProt O00327)
# Set-up: PASB domain (residues 338–449); Protein thermal shift (PTS) fragment screen on recombinant human BMAL1(PASB), shift of melting temperature
# conditionNotes: dTmB; binder
Parameter: Bmal1(PASB) dTmB. Scope: all listed entries.
Field format: number, assumed °C, no unit text.

{"columns": ["compound", "measuredOn", "readoutUnits", "testResult"],
 "data": [
  ["Nc1ccccc1S(N)(=O)=O", "BMAL1 (Homo sapiens, UniProt O00327)", "°C", 0.04],
  ["Nc1c(Cl)ccc2nsnc12", "BMAL1 (Homo sapiens, UniProt O00327)", "°C", -1.34],
  ["OC(c1ccccc1)(c1ccccc1)C1CCNCC1", "BMAL1 (Homo sapiens, UniProt O00327)", "°C", -1.27],
  ["COC(=O)c1scc(C)c1N", "BMAL1 (Homo sapiens, UniProt O00327)", "°C", -0.95],
  ["Cc1cn[nH]c1C", "BMAL1 (Homo sapiens, UniProt O00327)", "°C", -1.01],
  ["COc1ccc2c(c1)CCC(C(=O)O)C2 (centres unmarked)", "BMAL1 (Homo sapiens, UniProt O00327)", "°C", 0.52]
]}

Asked: Query Bmal1(PASB) dTmB on BMAL1 (Homo sapiens, UniProt O00327) for NNC(=O)c1ccccc1
Given back: -0.31

Asked: Also check Nc1cccnn1
Given back: -0.18

###

# measuredOn: BMAL1 (Homo sapiens)
# Design: PASB domain (residues 338–449); Protein thermal shift (PTS) fragment screen on recombinant human BMAL1(PASB), shift of melting temperature
# conditionNotes: dTmB; binder
Entry flag: label 1 if Bmal1(PASB) dTmB reaches -0.4 °C; label 0 if it does not.

Study these solved cases before continuing.
{"columns": ["compound", "groupLabel"],
 "data": [
  ["Oc1ccccc1OCC(F)(F)F", "label 0"],
  ["Oc1ccc2c(c1)CCC2", "label 0"],
  ["OC1c2ccccc2CCc2ccccc21", "label 0"]
]}

Asked: Is Bmal1(PASB) dTmB for Clc1cccc(N2CCNCC2)c1Cl at or above -0.4 °C?
Given back: label 0

Asked: Also check COc1ccc(CCN)cc1OC
Given back: label 1

Asked: Also check COc1ccc2nc(N)sc2c1
Given back: label 1

Asked: Also check OCCOc1cccc2[nH]ccc12
Given back: label 1

Asked: Also check O=c1[nH]c2ccccc2n1C1CCNCC1
Given back: label 0

Asked: Also check CCCCOc1cc(C(=O)OC)ccc1N
Given back: label 0

Asked: Also check Cc1ccccc1C(=O)Nc1ccccc1
Given back: label 0

###

# measuredOn: BMAL1 (Homo sapiens, UniProt O00327)
# Design: PASB domain (residues 338–449); Protein thermal shift (PTS) fragment screen on recombinant human BMAL1(PASB), shift of melting temperature
# conditionNotes: dTmB; binder
Entry flag: YES if Bmal1(PASB) dTmB reaches -0.3 °C; NO if it does not.

Study these solved cases before continuing.
{"columns": ["compound", "measuredOn", "groupLabel"],
 "data": [
  ["Oc1cccc2cccnc12", "BMAL1 (Homo sapiens, UniProt O00327)", "YES"],
  ["O=C(O)CCC(=O)Nc1ccccc1", "BMAL1 (Homo sapiens, UniProt O00327)", "NO"],
  ["Cc1ccccc1Nc1ncccc1C(=O)O", "BMAL1 (Homo sapiens, UniProt O00327)", "YES"],
  ["Nc1ccc2c(c1)CCCC2", "BMAL1 (Homo sapiens, UniProt O00327)", "YES"]
]}

Asked: Is Bmal1(PASB) dTmB for COc1ccc(CCN(C)C)cc1OC at or above -0.3 °C?
Given back: YES

###

# measuredOn: BMAL1 (Homo sapiens, UniProt O00327)
# Design: PASB domain (residues 338–449); Protein thermal shift (PTS) fragment screen on recombinant human BMAL1(PASB), shift of melting temperature
# conditionNotes: dTmB; binder
Parameter: Bmal1(PASB) dTmB. Scope: all listed entries.
Output should be the measured figure followed by the unit it is expressed in.

Example entries and their recorded answers appear below.
{"columns": ["smilesRepr", "readoutKind", "testResult"],
 "data": [
  ["CS(=O)(=O)Nc1ccccc1", "Bmal1(PASB) dTmB", "-0.10 °C"],
  ["Cn1c(=O)[nH]c2nc[nH]c2c1=O", "Bmal1(PASB) dTmB", "-0.59 °C"],
  ["c1cc2c(cc1CN1CCNCC1)OCO2", "Bmal1(PASB) dTmB", "-0.60 °C"]
]}

Asked: Which Bmal1(PASB) dTmB value is on record for Cc1ncsc1CCO ?
Given back: -0.60 °C
